- Target system: CYP2B6 (Homo sapiens)
- Sequence (P20813 1-491): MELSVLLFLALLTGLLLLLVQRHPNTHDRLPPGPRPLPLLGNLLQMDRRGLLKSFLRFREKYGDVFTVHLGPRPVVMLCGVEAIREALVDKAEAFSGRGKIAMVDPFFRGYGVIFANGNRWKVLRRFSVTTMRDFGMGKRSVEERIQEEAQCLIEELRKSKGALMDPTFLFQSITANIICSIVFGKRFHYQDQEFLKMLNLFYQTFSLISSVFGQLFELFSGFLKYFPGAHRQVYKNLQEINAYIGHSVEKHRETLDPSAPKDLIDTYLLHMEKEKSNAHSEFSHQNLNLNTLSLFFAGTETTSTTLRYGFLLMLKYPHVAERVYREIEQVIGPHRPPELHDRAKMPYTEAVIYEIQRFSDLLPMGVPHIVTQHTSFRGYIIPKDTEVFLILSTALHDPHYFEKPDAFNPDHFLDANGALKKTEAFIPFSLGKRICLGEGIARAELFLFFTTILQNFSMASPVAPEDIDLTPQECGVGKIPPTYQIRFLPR
- Assay text: Hydroxybupropion formation from bupropion in HepG2
- Type: in vitro ADME
- Cond: HepG2 cells
Endpoint label: Km at 24 h (µM)

Molecule	Reading
CC(NC(C)(C)C)C(=O)c1cccc(Cl)c1 (stereo not shown) [Bupropion, bupropion]	4.79
